The measurements presented in this section are drawn from patent US20040204577A1.

Tested on: enzyme derived from Sphingobacterium sp. strain FERM BP-8124 (SP-Sepharose HP fraction enzyme)
Experiment: Enzyme substrate specificity (11), (12): peptide production
Type: biochemical
Details: amides and methylamine; carboxy component 100 mM, amine component 150 mM, 0.33 units enzyme, pH 9.0, 25° C., 1.5 hours
Where a SMILES comes first, the peptide text is derived from it.
measured.attribute: Produced peptide (Table 15-4)

[[record]]
compound = "CNC(=O)C(C)N (centres unmarked)"
measured_attribute = "Produced peptide (Table 15-4)"
measured_value = "0.6 mM"

[[record]]
compound = "C[C@H](N)C(=O)NCC(N)=O [L-Ala-Gly-NH2] (H-Ala-Gly-NH2)"
measured_attribute = "Produced peptide (Table 15-4)"
measured_value = "15.1 mM"

[[record]]
compound = "C[C@H](N)C(=O)N[C@@H](Cc1ccccc1)C(N)=O"
measured_attribute = "Produced peptide (Table 15-4)"
measured_value = "27.1 mM"

[[record]]
compound = "C[C@H](N)C(=O)N[C@@H](C)C(N)=O [L-Ala-L-Ala-NH2] (H-Ala-Ala-NH2)"
measured_attribute = "Produced peptide (Table 15-4)"
measured_value = "9.2 mM"

[[record]]
compound = "C[C@H](N)C(=O)N[C@@H](Cc1cnc[nH]1)C(=O)O [L-Ala-L-His] (H-Ala-His-OH)"
measured_attribute = "Produced peptide (Table 15-4)"
measured_value = "tr"


----------
Tested on: peptide-forming enzyme (Mono S fraction enzyme)
Experiment: Enzyme substrate specificity (1)-(10), (13), (14): peptide production
Assay type: biochemical, Empedobacter brevis
Details: L-amino acid amide hydrochloride as carboxy component 100 mM, L-amino acid 150 mM, pH 9.0, 25° C., 3 hours
Where a SMILES comes first, the peptide text is derived from it.
measured.attribute: Formed peptide

[[record]]
compound = "N[C@@H](Cc1ccccc1)C(=O)N[C@@H](CO)C(=O)O [L-Phe-L-Ser] (H-Phe-Ser-OH)"
measured_attribute = "Formed peptide"
measured_value = "0.6 mM"

[[record]]
compound = "NC(=O)CC[C@H](NC(=O)[C@@H](N)Cc1ccccc1)C(=O)O"
measured_attribute = "Formed peptide"
measured_value = "0.2 mM"

[[record]]
compound = "C[C@H](N)C(=O)N[C@@H](Cc1cnc[nH]1)C(=O)O [L-Ala-L-His] (H-Ala-His-OH)"
measured_attribute = "Formed peptide"
measured_value = "3.9 mM"

[[record]]
compound = "C[C@H](N)C(=O)N[C@@H](CCC(N)=O)C(=O)O [L-Ala-L-Gln, L-alanyl-L-glutamine] (H-Ala-Gln-OH)"
measured_attribute = "Formed peptide"
measured_value = "7.6 mM"

[[record]]
compound = "C[C@@H](O)[C@H](N)C(=O)N[C@@H](CCC(N)=O)C(=O)O [L-Thr-L-Gln] (H-Thr-Gln-OH)"
measured_attribute = "Formed peptide"
measured_value = "0.3 mM"

[[record]]
compound = "CSCC[C@H](NC(=O)[C@H](C)N)C(=O)O [L-Ala-L-Met] (H-Ala-Met-OH)"
measured_attribute = "Formed peptide"
measured_value = "3.4 mM"


----------
Listing: Produced peptide (Table 15-1) of selected compounds
Test system: enzyme derived from Sphingobacterium sp. strain FERM BP-8124 (SP-Sepharose HP fraction enzyme)
Test: Enzyme substrate specificity (11), (12): peptide production
Type: biochemical
Settings: carboxy component 100 mM, amine component 150 mM, 0.33 units enzyme, pH 9.0, 25° C., 1.5 hours
Where a SMILES comes first, the peptide text is derived from it.
measured.attribute: Produced peptide (Table 15-1) (mM)

[[record]]
compound = "C[C@H](N)C(=O)N[C@@H](Cc1cnc[nH]1)C(=O)O [L-Ala-L-His] (H-Ala-His-OH)"
measured_value = 73.6

[[record]]
compound = "C[C@H](N)C(=O)N1CCC[C@H]1C(=O)O [L-Ala-L-Pro] (H-Ala-Pro-OH)"
measured_value = 1.5

[[record]]
compound = "CC(C)[C@H](NC(=O)[C@H](C)N)C(=O)O [L-Ala-L-Val] (H-Ala-Val-OH)"
measured_value = 10.9

[[record]]
compound = "C[C@H](N)C(=O)N[C@@H](CCC(=O)O)C(=O)O [L-Ala-L-Glu] (H-Ala-Glu-OH)"
measured_value = 39.1

